Provenance of the data: patent US12024506B2

# testSystem: GST-human KRas166 (G12V) GPPNHP (Homo sapiens, UniProt P01116, G12V)
# Construct: made in house; host or cells: E. coli C41(DE3)
# assayNotes: KRas small-molecule screening by SPR (Biacore T200)
# Type: binding
# measurementParameters: compound 100 uM, 5% DMSO buffer; immobilised GST-KRas166 (G12V) GPPNHP
Assign SPR Response Units to each entry below.
Reply numerically in Response Units, unit not repeated.

Q. Recorded SPR Response Units of COc1nc(-c2cccc3c2OCCO3)ccc1Nc1cccc(C2CCC(=O)N2)c1 (centres unmarked) , please.
A. 72

Q. Recorded SPR Response Units of COc1nc(-c2cccc3c2OCCO3)ccc1Nc1cccc(CNCC2CCN(C)CC2)c1 , please.
A. 552

Q. Recorded SPR Response Units of COc1nc(-c2cccc3c2OCCO3)ccc1Nc1cccc(C(=O)NCc2cccc(F)n2)c1 , please.
A. 23

Q. Recorded SPR Response Units of COc1cccc(-c2cccc3c2OC(CN(Cc2ccc(OCCN(C)C)cc2)CC2CCOCC2)CO3)n1 (centres unmarked) , please.
A. 85

Q. Recorded SPR Response Units of COc1nc(-c2cccc3c2OCCO3)ccc1Nc1ccc(CN(C)C)cc1 , please.
A. 116

Q. Recorded SPR Response Units of COc1nc(-c2cccc3c2OCCO3)ccc1Nc1ccc(CC(=O)N2CCN(C)CC2)cc1 , please.
A. 330

Q. Recorded SPR Response Units of COc1nc(-c2cccc3c2OCCO3)ccc1Nc1ccc(C(=O)NCC2CCC(=O)NC2)cc1 (centres unmarked) , please.
A. 122

Q. Recorded SPR Response Units of CN1CCC(NC(=O)c2ccc(Nc3ccc(-c4cccc5c4OC(CNC(=O)C4CCOCC4)CO5)nc3)cc2)CC1 (centres unmarked) , please.
A. 66
